- Test system: Klebsiella pneumoniae
- method: Antibacterial activity against Klebsiella pneumoniae at 25 ug/ml incubated for 24 hrs by agar well diffusion method
- Type: functional
- particulars: read-out: DIZ
The entries below come with measured zone of inhibition at 25 µg/mL values attached.
Supply the numeric figure in mm, leaving out any unit text.

molecule | zone of inhibition at 25 µg/mL, mm
CC(C)C[C@H](N)C(=O)Oc1ccc2c(=O)c3ccccc3oc2c1.Cl | 10
CC(C)(C)OC(=O)N[C@@H](CS)C(=O)Oc1ccc2c(=O)c3ccccc3oc2c1 | 18
N[C@@H](Cc1c[nH]c2ccccc12)C(=O)O [TRYPTOPHAN] | 6

Q: Return zone of inhibition at 25 µg/mL measured with Klebsiella pneumoniae given this molecule: "Cl.N[C@@H](Cc1c[nH]c2ccccc12)C(=O)Oc1ccc2c(=O)c3ccccc3oc2c1"
Result: 23

Q: Next molecule: "CC(C)[C@H](NC(=O)OC(C)(C)C)C(=O)Oc1ccc2c(=O)c3ccccc3oc2c1"
Result: 5

Q: Next molecule: "CSCC[C@H](N)C(=O)Oc1ccc2c(=O)c3ccccc3oc2c1.Cl"
Result: 17

Q: Next molecule: "Cl.O=C(Oc1ccc2c(=O)c3ccccc3oc2c1)[C@@H]1CCCN1"
Result: 18

Q: Next molecule: "CC(C)(C)OC(=O)N[C@@H](Cc1ccccc1)C(=O)Oc1ccc2c(=O)c3ccccc3oc2c1"
Result: 20
